target_of_assay: Glutamate receptor ionotropic, NMDA 2C (Rattus norvegicus, UniProt P35439+Q00961)
Sequence (Q00961 whole entry, one chain of several): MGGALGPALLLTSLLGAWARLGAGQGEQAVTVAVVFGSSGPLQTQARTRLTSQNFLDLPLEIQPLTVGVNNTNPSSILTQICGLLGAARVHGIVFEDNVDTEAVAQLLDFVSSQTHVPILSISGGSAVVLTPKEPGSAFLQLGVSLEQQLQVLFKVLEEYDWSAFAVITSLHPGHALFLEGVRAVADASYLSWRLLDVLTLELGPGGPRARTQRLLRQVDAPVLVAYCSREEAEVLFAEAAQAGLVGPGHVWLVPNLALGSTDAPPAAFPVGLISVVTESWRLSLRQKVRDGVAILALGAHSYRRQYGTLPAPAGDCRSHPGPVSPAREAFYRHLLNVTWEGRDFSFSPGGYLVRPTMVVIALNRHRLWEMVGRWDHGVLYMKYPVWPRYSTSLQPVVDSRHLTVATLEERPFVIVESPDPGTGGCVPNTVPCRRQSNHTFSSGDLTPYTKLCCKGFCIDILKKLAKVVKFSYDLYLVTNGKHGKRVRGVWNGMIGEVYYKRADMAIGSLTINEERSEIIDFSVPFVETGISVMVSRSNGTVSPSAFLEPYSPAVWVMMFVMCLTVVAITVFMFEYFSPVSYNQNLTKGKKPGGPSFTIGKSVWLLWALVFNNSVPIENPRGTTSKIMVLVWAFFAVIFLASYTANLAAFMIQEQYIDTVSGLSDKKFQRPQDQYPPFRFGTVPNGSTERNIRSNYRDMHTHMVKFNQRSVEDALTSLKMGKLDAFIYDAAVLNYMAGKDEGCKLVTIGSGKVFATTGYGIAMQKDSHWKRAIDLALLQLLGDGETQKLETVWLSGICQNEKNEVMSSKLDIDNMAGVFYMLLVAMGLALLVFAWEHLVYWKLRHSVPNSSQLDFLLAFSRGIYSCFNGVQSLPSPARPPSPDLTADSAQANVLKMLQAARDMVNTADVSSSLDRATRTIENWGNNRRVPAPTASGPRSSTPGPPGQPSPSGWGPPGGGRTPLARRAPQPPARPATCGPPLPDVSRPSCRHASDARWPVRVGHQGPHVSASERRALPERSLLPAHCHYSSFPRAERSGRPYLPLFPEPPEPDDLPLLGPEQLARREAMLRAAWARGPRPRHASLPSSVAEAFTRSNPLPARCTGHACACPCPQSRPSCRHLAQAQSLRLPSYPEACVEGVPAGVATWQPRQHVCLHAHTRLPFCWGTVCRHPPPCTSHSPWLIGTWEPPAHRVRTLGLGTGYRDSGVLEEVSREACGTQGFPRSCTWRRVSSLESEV
measurement_protocol: Negative allosteric modulation of recombinant rat GluN2C receptor expressed in Xenopus laevis oocytes by two-electrode voltage clamp method

[
  {
    "compound": "COc1cccc(-c2c(C3=NN(C(=O)CCC(=O)O)C(c4ccc(Cl)cc4)C3)c(=O)[nH]c3ccccc23)c1 (centres undefined)",
    "target_of_assay": "Glutamate receptor ionotropic, NMDA 2C (Rattus norvegicus, UniProt P35439+Q00961)",
    "IC50 / µM": 7.8
  },
  {
    "compound": "O=C(O)CCC(=O)N1N=C(c2c(-c3ccccc3)c3cc(Cl)ccc3[nH]c2=O)CC1c1ccc(Br)cc1 (centres undefined)",
    "target_of_assay": "Glutamate receptor ionotropic, NMDA 2C (Rattus norvegicus, UniProt P35439+Q00961)",
    "IC50 / µM": 3.6
  },
  {
    "compound": "O=C(O)CCC(=O)N1N=C(c2c(-c3ccccc3)c3cc(Cl)ccc3[nH]c2=O)CC1c1ccc2c(c1)OCO2 (centres undefined)",
    "target_of_assay": "Glutamate receptor ionotropic, NMDA 2C (Rattus norvegicus, UniProt P35439+Q00961)",
    "IC50 / µM": 23
  },
  {
    "compound": "O=C(O)CCC(=O)N1N=C(c2c(-c3cccc(Cl)c3)c3ccccc3[nH]c2=O)CC1c1ccc(Cl)cc1 (centres undefined)",
    "target_of_assay": "Glutamate receptor ionotropic, NMDA 2C (Rattus norvegicus, UniProt P35439+Q00961)",
    "IC50 / µM": 2.1
  }
]

---

The entries below come with measured IC50 values attached.
target_of_assay: Glutamate receptor ionotropic, NMDA 2D (Rattus norvegicus, UniProt P35439+Q62645)
Sequence (Q62645 whole entry, one chain of several): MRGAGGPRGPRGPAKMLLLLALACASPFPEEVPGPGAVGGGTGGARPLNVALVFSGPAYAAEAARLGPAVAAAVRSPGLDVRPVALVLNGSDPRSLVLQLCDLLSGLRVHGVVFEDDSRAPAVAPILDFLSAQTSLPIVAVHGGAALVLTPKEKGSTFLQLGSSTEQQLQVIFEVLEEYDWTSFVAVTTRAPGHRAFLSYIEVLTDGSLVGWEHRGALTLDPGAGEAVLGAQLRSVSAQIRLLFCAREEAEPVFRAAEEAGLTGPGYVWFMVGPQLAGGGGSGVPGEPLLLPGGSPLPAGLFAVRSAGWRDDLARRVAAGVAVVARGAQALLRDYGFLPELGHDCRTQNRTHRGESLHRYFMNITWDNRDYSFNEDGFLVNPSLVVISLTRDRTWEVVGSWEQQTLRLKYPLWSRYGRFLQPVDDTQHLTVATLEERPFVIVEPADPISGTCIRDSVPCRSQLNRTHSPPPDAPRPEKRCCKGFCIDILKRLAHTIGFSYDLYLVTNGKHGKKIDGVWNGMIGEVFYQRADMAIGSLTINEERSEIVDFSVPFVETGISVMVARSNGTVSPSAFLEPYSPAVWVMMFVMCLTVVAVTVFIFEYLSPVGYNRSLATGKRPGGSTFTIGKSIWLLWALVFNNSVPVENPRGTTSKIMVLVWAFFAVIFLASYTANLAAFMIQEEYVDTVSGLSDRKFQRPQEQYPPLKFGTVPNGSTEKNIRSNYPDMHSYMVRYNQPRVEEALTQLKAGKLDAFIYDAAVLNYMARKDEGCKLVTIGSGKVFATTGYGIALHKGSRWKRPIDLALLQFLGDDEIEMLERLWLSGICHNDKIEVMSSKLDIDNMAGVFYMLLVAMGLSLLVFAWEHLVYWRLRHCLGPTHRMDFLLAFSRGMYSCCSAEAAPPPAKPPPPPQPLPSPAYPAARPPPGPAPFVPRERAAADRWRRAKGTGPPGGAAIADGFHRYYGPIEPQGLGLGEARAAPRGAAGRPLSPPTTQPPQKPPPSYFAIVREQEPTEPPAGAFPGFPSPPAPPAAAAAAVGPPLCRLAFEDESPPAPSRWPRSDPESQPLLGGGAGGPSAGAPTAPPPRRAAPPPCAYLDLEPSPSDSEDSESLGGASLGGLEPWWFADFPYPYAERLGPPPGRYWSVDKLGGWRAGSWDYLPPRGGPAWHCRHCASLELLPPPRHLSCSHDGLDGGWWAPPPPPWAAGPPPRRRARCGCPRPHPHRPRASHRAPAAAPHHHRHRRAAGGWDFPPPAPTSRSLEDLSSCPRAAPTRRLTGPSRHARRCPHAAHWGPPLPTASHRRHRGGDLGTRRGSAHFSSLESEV
measurement_protocol: Negative allosteric modulation of recombinant rat GluN2D receptor expressed in Xenopus laevis oocytes by two-electrode voltage clamp method

[
  {
    "molecule": "O=C(O)CCC(=O)N1N=C(c2c(-c3cc(F)cc(F)c3)c3ccccc3[nH]c2=O)CC1c1ccc(Cl)cc1 (centres undefined)",
    "IC50, nM": 810
  },
  {
    "molecule": "O=C(O)CCC(=O)N1N=C(c2c(-c3ccc(F)c(F)c3)c3ccccc3[nH]c2=O)CC1c1ccc(Cl)cc1 (centres undefined)",
    "IC50, nM": 660
  },
  {
    "molecule": "O=C(O)CCC(=O)N1N=C(c2c(-c3ccc(Cl)cc3)c3ccccc3[nH]c2=O)C[C@@H]1c1ccc(Cl)cc1",
    "IC50, nM": 1900
  },
  {
    "molecule": "O=C(O)CCC(=O)N1N=C(c2c(-c3ccc(C(F)(F)F)cc3)c3ccccc3[nH]c2=O)CC1c1ccc(Cl)cc1 (centres undefined)",
    "IC50, nM": 2800
  },
  {
    "molecule": "O=C(O)/C=C\\C(=O)N1N=C(c2c(-c3ccc(Br)cc3)c3ccccc3[nH]c2=O)CC1c1ccc(Cl)cc1 (centres undefined)",
    "IC50, nM": 570
  },
  {
    "molecule": "O=C(O)/C=C/C(=O)N1N=C(c2c(-c3ccccc3)c3cc(Cl)ccc3[nH]c2=O)CC1c1ccc(Br)cc1 (centres undefined)",
    "IC50, nM": 1400
  },
  {
    "molecule": "O=C(O)CCC(=O)N1N=C(c2c(-c3ccc(Br)cc3)c3ccccc3[nH]c2=O)CC1c1ccc(F)cc1 (centres undefined)",
    "IC50, nM": 2900
  },
  {
    "molecule": "O=C(O)CCC(=O)N1N=C(c2c(-c3ccc(Br)cc3)c3ccccc3[nH]c2=O)CC1c1ccc(Cl)cc1 (centres undefined)",
    "IC50, nM": 290
  },
  {
    "molecule": "COc1ccc(C2CC(c3c(-c4ccccc4)c4cc(Cl)ccc4[nH]c3=O)=NN2C(=O)CCC(=O)O)cc1 (centres undefined)",
    "IC50, nM": 21000
  },
  {
    "molecule": "O=C(O)/C=C\\C(=O)N1N=C(c2c(-c3ccccc3)c3cc(Cl)ccc3[nH]c2=O)CC1c1ccc(Br)cc1 (centres undefined)",
    "IC50, nM": 5000
  },
  {
    "molecule": "O=C(O)CCC(=O)N1N=C(c2c(-c3cccc(F)c3)c3ccccc3[nH]c2=O)CC1c1ccc(Cl)cc1 (centres undefined)",
    "IC50, nM": 690
  },
  {
    "molecule": "N#Cc1cccc(-c2c(C3=NN(C(=O)CCC(=O)O)C(c4ccc(Cl)cc4)C3)c(=O)[nH]c3ccccc23)c1 (centres undefined)",
    "IC50, nM": 13000
  },
  {
    "molecule": "O=C(O)CCCC(=O)N1N=C(c2c(-c3ccccc3)c3cc(Cl)ccc3[nH]c2=O)CC1c1ccc(Br)cc1 (centres undefined)",
    "IC50, nM": 4000
  },
  {
    "molecule": "O=C(O)CCCC(=O)N1N=C(c2c(-c3ccc(Br)cc3)c3ccccc3[nH]c2=O)CC1c1ccc(Cl)cc1 (centres undefined)",
    "IC50, nM": 320
  },
  {
    "molecule": "O=C(O)CCC(=O)N1N=C(c2c(-c3ccc(F)cc3)c3ccccc3[nH]c2=O)CC1c1ccc(Cl)cc1 (centres undefined)",
    "IC50, nM": 580
  },
  {
    "molecule": "O=C(O)CCC(=O)N1N=C(c2c(-c3ccc(F)c(Cl)c3)c3ccccc3[nH]c2=O)CC1c1ccc(Cl)cc1 (centres undefined)",
    "IC50, nM": 1000
  },
  {
    "molecule": "O=C(O)CCC(=O)N1N=C(c2c(-c3ccc(Cl)cc3)c3ccccc3[nH]c2=O)CC1c1ccc(Cl)cc1 (racemic)",
    "IC50, nM": 440
  },
  {
    "molecule": "COc1cccc(-c2c(C3=NN(C(=O)CCC(=O)O)C(c4ccc(Cl)cc4)C3)c(=O)[nH]c3ccccc23)c1 (centres undefined)",
    "IC50, nM": 4500
  },
  {
    "molecule": "N#Cc1ccc(-c2c(C3=NN(C(=O)CCC(=O)O)C(c4ccc(Cl)cc4)C3)c(=O)[nH]c3ccccc23)cc1 (centres undefined)",
    "IC50, nM": 7000
  },
  {
    "molecule": "O=C(O)CCCC(=O)N1N=C(c2c(-c3ccccc3)c3cc(Cl)ccc3[nH]c2=O)CC1c1ccc([N+](=O)[O-])cc1 (centres undefined)",
    "IC50, nM": 11000
  },
  {
    "molecule": "O=C(O)CCC(=O)N1N=C(c2c(-c3ccccc3)c3cc(Cl)ccc3[nH]c2=O)CC1c1ccc(F)cc1 (centres undefined)",
    "IC50, nM": 14000
  },
  {
    "molecule": "O=C(O)CCC(=O)N1N=C(c2c(-c3ccccc3)c3cc(Cl)ccc3[nH]c2=O)CC1c1ccc(Br)cc1 (centres undefined)",
    "IC50, nM": 3100
  },
  {
    "molecule": "O=C(O)CCC(=O)N1N=C(c2c(-c3ccccc3)c3cc(Cl)ccc3[nH]c2=O)CC1c1ccc([N+](=O)[O-])cc1 (centres undefined)",
    "IC50, nM": 1100
  },
  {
    "molecule": "Cc1ccc(-c2c(C3=NN(C(=O)CCC(=O)O)C(c4ccc(Cl)cc4)C3)c(=O)[nH]c3ccccc23)cc1 (centres undefined)",
    "IC50, nM": 1400
  },
  {
    "molecule": "O=C(O)CCC(=O)N1N=C(c2c(-c3ccc(Cl)c(F)c3)c3ccccc3[nH]c2=O)CC1c1ccc(Cl)cc1 (centres undefined)",
    "IC50, nM": 530
  },
  {
    "molecule": "Cc1cccc(-c2c(C3=NN(C(=O)CCC(=O)O)C(c4ccc(Cl)cc4)C3)c(=O)[nH]c3ccccc23)c1 (centres undefined)",
    "IC50, nM": 1900
  },
  {
    "molecule": "CN(C)c1ccc(C2CC(c3c(-c4ccccc4)c4cc(Cl)ccc4[nH]c3=O)=NN2C(=O)CCC(=O)O)cc1 (centres undefined)",
    "IC50, nM": 19000
  },
  {
    "molecule": "O=C(O)CCC(=O)N1N=C(c2c(-c3cc(Cl)cc(Cl)c3)c3ccccc3[nH]c2=O)CC1c1ccc(Cl)cc1 (centres undefined)",
    "IC50, nM": 700
  },
  {
    "molecule": "O=C(O)CCC(=O)N1N=C(c2c(-c3cccc(C(F)(F)F)c3)c3ccccc3[nH]c2=O)CC1c1ccc(Cl)cc1 (centres undefined)",
    "IC50, nM": 2600
  }
]
